Reported b-arrestin2 EC50 values for a set of binders
# target.system: T1, human angiotensin 2 type 1 receptor (human, UniProt P30556 1-359)
# T1 sequence (looked up): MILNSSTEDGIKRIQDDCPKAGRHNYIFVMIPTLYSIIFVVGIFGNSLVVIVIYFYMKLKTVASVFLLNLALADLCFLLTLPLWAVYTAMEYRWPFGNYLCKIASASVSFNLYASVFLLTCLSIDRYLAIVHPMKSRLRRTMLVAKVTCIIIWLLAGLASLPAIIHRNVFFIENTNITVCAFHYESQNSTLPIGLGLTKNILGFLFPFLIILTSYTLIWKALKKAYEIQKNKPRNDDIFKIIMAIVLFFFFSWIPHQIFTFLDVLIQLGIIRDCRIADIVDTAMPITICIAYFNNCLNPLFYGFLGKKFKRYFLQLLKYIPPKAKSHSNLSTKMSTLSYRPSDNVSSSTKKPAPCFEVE
# assay.info: cell-based or functional assay
Non-standard residues stand in square brackets, D forms with d. No end group written: not given here. Sar = CNCC(=O)O
# output: bare number, implied unit nM

# binder, b-arrestin2 EC50 / nM
measured = [
    ("XRVYIHP (Sar (sarcosine) at 1; D-Pro at 7; C-terminal amide (NH2)) [SEQ ID NO: 51]", 330),
    ("[Sar]RVYRHP-NH2 (N-terminus assumed; SMILES CNCC(=O)N[C@@H](CCCNC(=N)N)C(=O)N[C@H](C(=O)N[C@@H](Cc1ccc(O)cc1)C(=O)N[C@@H](CCCNC(=N)N)C(=O)N[C@@H](Cc1c[nH]cn1)C(=O)N1CCC[C@H]1C(N)=O)C(C)C) [SEQ ID NO: 45]", 30),
]

Query DRVYIHPG-OH [SEQ ID NO: 56] yields b-arrestin2 EC50 of 550
